- experiment-summary: Inhibition of N-terminal His-tagged bovine PI3Kgamma expressed in Sf21 cells using L-alpha-phosphatidylinositol substrate by TLC based phosphor imaging
- Design: species or system Bos taurus
value-kind: pIC50
Keep it numeric: pIC50 is minus log10 of the concentration in mol/L.

Report measured pIC50; entry is COc1ccc(-c2nnc(SCc3cccc(Cl)c3)o2)c(O)c1
5.73

Report measured pIC50; entry is COc1ccc(-c2nnc(SCc3cccc([N+](=O)[O-])c3)o2)c(O)c1
5.61

Report measured pIC50; entry is COc1cccc(CSc2nnc(-c3ccc(C)cc3O)o2)c1
5.59

Continuing:
Report measured pIC50; entry is Cc1ccc(-c2nnc(SCc3ccc([N+](=O)[O-])cc3)o2)c(O)c1
6.51

Report measured pIC50; entry is COc1ccc(-c2nnc(SCc3ccc(F)cc3)o2)c(O)c1
6.01

Report measured pIC50; entry is COc1ccc(-c2nnc(SCc3ccccc3F)o2)c(O)c1
6.23

* * *

- target-entity: Phosphatidylinositol 4,5-bisphosphate 3-kinase catalytic subunit alpha isoform (Mus musculus, UniProt P42337)
- Sequence (P42337 whole entry, canonical isoform): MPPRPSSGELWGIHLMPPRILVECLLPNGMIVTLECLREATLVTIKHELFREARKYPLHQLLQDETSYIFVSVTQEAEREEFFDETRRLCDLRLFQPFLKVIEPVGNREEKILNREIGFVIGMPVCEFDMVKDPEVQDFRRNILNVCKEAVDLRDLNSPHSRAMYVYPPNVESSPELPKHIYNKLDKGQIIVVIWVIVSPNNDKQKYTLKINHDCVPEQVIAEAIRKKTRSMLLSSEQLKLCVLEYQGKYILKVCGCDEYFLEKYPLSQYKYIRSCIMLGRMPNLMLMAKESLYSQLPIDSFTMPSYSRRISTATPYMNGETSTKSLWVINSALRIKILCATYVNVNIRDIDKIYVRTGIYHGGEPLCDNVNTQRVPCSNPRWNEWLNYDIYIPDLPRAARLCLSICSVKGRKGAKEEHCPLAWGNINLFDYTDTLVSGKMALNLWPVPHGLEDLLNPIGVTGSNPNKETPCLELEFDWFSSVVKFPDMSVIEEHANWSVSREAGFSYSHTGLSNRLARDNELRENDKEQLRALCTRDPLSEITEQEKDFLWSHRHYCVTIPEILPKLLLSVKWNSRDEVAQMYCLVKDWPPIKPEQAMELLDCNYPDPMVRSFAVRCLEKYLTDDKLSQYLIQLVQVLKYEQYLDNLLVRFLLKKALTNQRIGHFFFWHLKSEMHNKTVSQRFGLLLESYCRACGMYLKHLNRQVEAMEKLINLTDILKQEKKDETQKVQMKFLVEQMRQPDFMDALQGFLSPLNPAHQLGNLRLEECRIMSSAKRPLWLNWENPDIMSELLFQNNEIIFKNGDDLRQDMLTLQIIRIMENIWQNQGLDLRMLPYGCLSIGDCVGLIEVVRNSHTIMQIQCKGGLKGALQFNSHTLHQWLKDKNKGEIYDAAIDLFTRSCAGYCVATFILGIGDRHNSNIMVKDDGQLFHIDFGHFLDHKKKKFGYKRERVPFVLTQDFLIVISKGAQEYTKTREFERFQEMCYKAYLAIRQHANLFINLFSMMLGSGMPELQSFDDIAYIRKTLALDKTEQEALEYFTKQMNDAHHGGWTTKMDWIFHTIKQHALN
- experiment-summary: Inhibition of mouse wild type PI3Kalpha expressed in Sf21 cells co-expressing N-terminal His-tagged human p85a using L-alpha-phosphatidylinositol substrate by TLC based phosphor imaging
Entries and their IC50
// return numeric value only (unit: µM, not printed)

Some entries whose results are on file:
Report measured IC50; entry is COc1ccc(-c2nnc(SCc3cccc(Cl)c3)o2)c(O)c1
15.4

Report measured IC50; entry is COc1ccc(-c2nnc(SCc3cccc([N+](=O)[O-])c3)o2)c(O)c1
17.9

Report measured IC50; entry is COc1cccc(CSc2nnc(-c3ccc(C)cc3O)o2)c1
1.97

Report measured IC50; entry is COc1ccc(-c2nnc(SCc3ccc(F)cc3)o2)c(O)c1
31.2

Report measured IC50; entry is COc1ccc(-c2nnc(SCc3ccccc3F)o2)c(O)c1
33.9

Proceeding to the next compound to report its IC50.
Report measured IC50; entry is Cc1ccc(-c2nnc(SCc3ccc([N+](=O)[O-])cc3)o2)c(O)c1
54.9

* * *

- experiment-summary: Cytotoxicity against BALB/c mouse lymph node cells at 10 uM after 24 hrs MTT assay
Entries and their OD
The answer should be a number; do not append a unit.

Report measured OD; entry is COc1ccc(-c2nnc(SCc3ccc(F)cc3)o2)c(O)c1
0.87

Report measured OD; entry is COc1cccc(CSc2nnc(-c3ccc(OC)cc3O)o2)c1
0.71

Report measured OD; entry is COc1ccc(-c2nnc(SCc3ccccc3F)o2)c(O)c1
0.79

Report measured OD; entry is Cc1ccc(-c2nnc(SCc3ccc(Cl)cc3)o2)c(O)c1
0.75

Report measured OD; entry is COc1cccc(CSc2nnc(-c3ccc(C)cc3O)o2)c1
0.87

Report measured OD; entry is Cc1ccc(-c2nnc(SCc3ccccc3Cl)o2)c(O)c1
0.79

Report measured OD; entry is COc1ccc(-c2nnc(SCc3cccc(C)c3)o2)c(O)c1
1.12

Report measured OD; entry is Cc1ccc(-c2nnc(SCc3cccc(Cl)c3)o2)c(O)c1
0.7

Report measured OD; entry is Cc1ccc(-c2nnc(SCc3ccc([N+](=O)[O-])cc3)o2)c(O)c1
0.89

Report measured OD; entry is Cc1cccc(CSc2nnc(-c3ccc(C)cc3O)o2)c1
0.8

Continuing:
Report measured OD; entry is COc1ccc(-c2nnc(SCc3ccccc3)o2)c(O)c1
0.81

Report measured OD; entry is COc1ccc(-c2nnc(SCc3cccc(Cl)c3)o2)c(O)c1
0.9

Report measured OD; entry is COc1ccc(-c2nnc(SCc3ccccc3[N+](=O)[O-])o2)c(O)c1
0.91

Report measured OD; entry is COc1ccc(CSc2nnc(-c3ccc(OC)cc3O)o2)cc1
0.75

Report measured OD; entry is Cc1ccc(-c2nnc(SCc3ccccc3)o2)c(O)c1
0.86

Report measured OD; entry is COc1ccc(-c2nnc(SCc3ccc(C)cc3)o2)c(O)c1
0.9

Report measured OD; entry is Cc1ccc(-c2nnc(SCc3ccccc3F)o2)c(O)c1
0.82
